The measurements presented in this section are drawn from patent US5401490A.

protocol.summary: Tissue distribution of radioactivity after intravenous injection
Format: in vivo, BALB/C mice
condition.notes: mouse, blood, iv; 0.50 h, i.v.; read-out: Percent of Injected Dose per Gram, Blood
Quick list: tissue uptake at 0.5 h per entry.

molecule: O=[N+]([O-])c1nccn1[C@@H]1O[C@H](CI)[C@@H](O)[C@@H]1O [IAZA]
tissue uptake at 0.5 h: 2.17 %ID/g

Now turn to the next molecule.
Provide one value: measured tissue uptake at 0.5 h of O=[N+]([O-])c1nccn1[C@@H]1O[C@H](CI)[C@H](O)[C@H](O)[C@H]1O [IAZG]
1.11 %ID/g

----------
tissue uptake at 24 h values for the compounds below.
protocol.summary: Tissue distribution of radioactivity after intravenous injection
Assay type: in vivo, BALB/C mice
condition.notes: mouse, muscle, iv; 24 h, i.v.; read-out: Percent of Injected Dose per Gram, Muscle
Param answer (str): number followed by unit.

compound: O=[N+]([O-])c1nccn1[C@@H]1O[C@H](CI)[C@H](O)[C@H](O)[C@H]1O [IAZG]
tissue uptake at 24 h: 0.02 %ID/g

Moving on to another compound below.
Using the record for O=[N+]([O-])c1nccn1[C@@H]1O[C@H](CI)[C@@H](O)[C@@H]1O [IAZA] , state its measured tissue uptake at 24 h.
0.02 %ID/g
